Entries annotated with measured PT
# Organism: Rattus norvegicus
# Test: Open TG-GATES - Regimen: Single
# Assay type: toxicity, organism-based, Sprague-Dawley
# Set-up: regimen Single, gender Male, age 6 weeks
# Assay Setup: in vivo, po, 0 mg/kg, 6 h, tissue Blood, route gavage, dose level Control
Report only the number, with the unit s understood.

O=C(N[C@H](CO)[C@H](O)c1ccc([N+](=O)[O-])cc1)C(Cl)Cl [CHLORAMPHENICOL]	14.6
C[C@](N)(Cc1ccc(O)c(O)c1)C(=O)O [METHYLDOPA]	12.4
C#C[C@]1(O)CC[C@H]2[C@@H]3CCc4cc(O)ccc4[C@H]3CC[C@@]21C [ETHINYL ESTRADIOL]	12.3
C[C@]12CCC(=O)C=C1CC[C@@H]1[C@@H]2CC[C@@]2(C)[C@H]1CC[C@]2(C)O [METHYLTESTOSTERONE]	13.2

API: the following record is the query input.
Ask | Input CCSCC[C@H](N)C(=O)O [ETHIONINE] , output reported PT.
Reply | 12.8

All figures here come from ChEMBL document CHEMBL3885861.
